# cAMP Rel EC50, nM (1% HSA) per entry
- experimental_system: T1, human GIP receptor (human) (UniProt P48546)
- T1 sequence (looked up): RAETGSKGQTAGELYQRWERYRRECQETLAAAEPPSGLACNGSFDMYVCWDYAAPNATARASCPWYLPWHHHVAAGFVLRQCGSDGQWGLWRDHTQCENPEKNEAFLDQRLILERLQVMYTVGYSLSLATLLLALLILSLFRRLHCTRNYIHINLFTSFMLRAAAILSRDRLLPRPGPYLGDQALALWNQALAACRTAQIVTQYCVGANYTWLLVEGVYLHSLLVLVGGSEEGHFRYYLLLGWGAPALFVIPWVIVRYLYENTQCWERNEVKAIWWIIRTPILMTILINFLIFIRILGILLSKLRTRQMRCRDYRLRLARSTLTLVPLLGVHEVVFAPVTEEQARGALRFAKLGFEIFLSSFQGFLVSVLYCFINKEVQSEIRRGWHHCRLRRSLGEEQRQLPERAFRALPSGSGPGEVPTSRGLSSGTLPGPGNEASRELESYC
- assay: cell-based or functional assay
# number only, unit nM dropped from output

binder="YXQGTFTSDFSXXLDKKAQXAFIEYLLEGGPSSGAXPPGGS (acylated; synthetic construct; SITE 2: note = 2-Aminoisobutyric Acid; SITE 12: note = L-ornithine; SITE 13: note = alpha-methyl-leucine; SITE 17: note = Lysine is chemically modified through conjugation of the epsilon-amino group of the Lysine side chain with (2-[2-(2-Amino-ethoxy)-ethoxy]-acetyl)-(gamma-Glu)) [Example 235]" assay_value=40.8
binder="YXQGTFTSDFSXXLDKKAQXAFIEYLLEGGHSSGEPPPGGS (synthetic construct; SITE 2: note = 2-Aminoisobutyric Acid; SITE 12: note = L-ornithine; SITE 13: note = alpha-methyl-leucine; SITE 17: note = Lysine is chemically modified through conjugation of the epsilon-amino group of the Lysine side chain with (2-[2-(2-Amino-ethoxy)-ethoxy]-acetyl)-(gamma-Glu)) [Example 164]" assay_value=59
binder="YXQGTFTSDXSXXLDKKAQXAFIEYLLAGGPSSGEPPPSGS (synthetic construct; SITE 2: note = 2-Aminoisobutyric Acid; SITE 10: note = 3-(4-Pyridyl)-L-alanine; SITE 12: note = L-ornithine; SITE 13: note = alpha-methyl-leucine; SITE 17: note = Lysine is chemically modified through conjugation of the epsilon-amino group of the Lysine side chain with (2-[2-(2-) [Example 154]" assay_value=29.7
binder="YXQGTFTSDXSXXLDXKAQXAFIEXLIEGGPSSGAPPPSGS (Aib, 4Pal, Orn, αMeL, Me4Pal, αMeY, (γGlu)2-C18 diacid, amide; synthetic construct; SITE 2: note = 2-Aminoisobutyric Acid; SITE 10: note = 3-(4-Pyridyl)-L-alanine; SITE 12: note = L-ornithine; SITE 13: note = alpha-methyl-leucine; SITE 16: note = L-ornithine; SITE 17: note = Lysine is chemically modified through conjugation of the epsilon-amino group of the Lys) [Example 1013]" assay_value=22.6
binder="YXQGTFTSDXSXXLDKKAQXAFIEYLIEXGESSGAPPPSGS (acylated; synthetic construct; SITE 2: note = 2-Aminoisobutyric Acid; SITE 10: note = 3-(4-Pyridyl)-L-alanine; SITE 12: note = L-ornithine; SITE 13: note = alpha-methyl-leucine; SITE 17: note = Lysine is chemically modified through conjugation of the epsilon-amino group of the Lysine side chain with (2-[2-(2-) [Example 223]" assay_value=37.2

Proceeding to the next binder to report its cAMP Rel EC50, nM (1% HSA).
Exercise: Look up cAMP Rel EC50, nM (1% HSA): YXQGTFTSDXSXXLDKKAQXAFIEXLIEXGPSSGEPPPSGS (Aib, 4Pal, Orn, αMeL, Me4Pal, acylated K, C-terminal amide; synthetic construct; SITE 2: note = 2-Aminoisobutyric Acid; SITE 10: note = 3-(4-Pyridyl)-L-alanine; SITE 12: note = L-ornithine; SITE 13: note = alpha-methyl-leucine; SITE 17: note = Lysine is chemically modified through conjugation of the epsilon-amino group of the Lysine side chain with (2-[2-(2-) [Example 987]
Key: 11.7
